# Test system: Haemophilus influenzae ATCC 49247
# Experiment: Study 4 - MIC by broth micro-dilution (CLSI)
# Type: cell-based
# Condition Notes: Haemophilus influenzae, ATCC49247; G = H. influenzae ATCC 49247; read-out: MIC
Exercise: state measured MIC for each of the compounds provided.
Answers are plain numbers, in µg/mL.

>>> observed_result("CC[C@H]1OC(=O)[C@H](C)[C@@H](O[C@H]2C[C@@](C)(OC)[C@@H](O)[C@H](C)O2)[C@H](C)[C@@H](O[C@@H]2O[C@H](C)C[C@H](N(C)C)[C@H]2O)[C@](C)(O)C[C@@H](C)CN(C)[C@H](C)[C@@H](O)[C@]1(C)O")
2
>>> observed_result("CC(C)CC(N)C(=O)N[S+]([O-])c1ccc(F)cc1 (centres unmarked)")
32
>>> observed_result("CC(C)CC(N)C(=O)N[S+]([O-])c1cccc(Cl)c1 (centres unmarked)")
4
>>> observed_result("COc1cccc([S+]([O-])NC(=O)C(N)CC(C)C)c1 (centres unmarked)")
8
>>> observed_result("CC(C)CC(N)C(=O)N[S+]([O-])c1cccc(F)c1 (centres unmarked)")
4
>>> observed_result("CC(C)CC(N)C(=O)N[S+]([O-])c1cccc(OC(F)(F)F)c1 (centres unmarked)")
64
>>> observed_result("CC(C)CC(N)C(=O)N[S+]([O-])c1cccc(C#N)c1 (centres unmarked)")
8
>>> observed_result("CC(C)C[C@H](N)C(=O)N[S@+]([O-])c1cccc(Cl)c1")
8

Kindly give each listed record's MIC.
1. CC(C)CC(N)C(=O)N[S+]([O-])c1ccccc1C#N (centres unmarked)
2. CC(C)CC(N)C(=O)N[S+]([O-])c1cccc(Br)c1 (centres unmarked)
3. C=Cc1cccc([S+]([O-])NC(=O)C(N)CC(C)C)c1 (centres unmarked)
4. C#Cc1cccc([S+]([O-])NC(=O)C(N)CC(C)C)c1 (centres unmarked)
5. CC(C)CC(N)C(=O)N[S+]([O-])c1cccc2ccccc12 (centres unmarked)

Data returned:
[8, 8, 32, 16, 8]

---

# System: Enterobacter cloacae B1966 clinical isolate
# Experiment: Study 4 - MIC by broth micro-dilution (CLSI)
# Type: cell-based
# Condition Notes: Enterobacter cloacae
Label Met when MIC is strictly below 8 µg/mL; at or above that, label Not met.

Some solved cases for reference:
>>> label_class("CC(C)CC(N)C(=O)N[S+]([O-])c1cccc(Br)c1 (stereo not shown)")
"Not met"
>>> label_class("CC(C)C[C@H](N)C(=O)N[S@+]([O-])c1ccccc1 (single isomer, unassigned) [R-4.1, 2,2,2-trifluoroacetate]")
"Met"

Data request: Please determine if CC(C)C[C@H](N)C(=O)N[S@@+]([O-])c1ccccc1 (single isomer, unassigned) is below 8 µg/mL in terms of MIC.
Data returned: Not met

Data request: Please determine if CC(C)CC(N)C(=O)N[S+]([O-])c1ccccc1C#N (stereo not shown) is below 8 µg/mL in terms of MIC.
Data returned: Not met

Data request: Please determine if CC(C)CC(N)C(=O)N[S+]([O-])c1cccc(F)c1F (stereo not shown) is below 8 µg/mL in terms of MIC.
Data returned: Met

Data request: Please determine if Cc1cccc([S+]([O-])NC(=O)C(N)CC(C)C)c1 (stereo not shown) is below 8 µg/mL in terms of MIC.
Data returned: Not met

Data request: Please determine if CC(C)CC(N)C(=O)N[S+]([O-])c1cccc2ccccc12 (stereo not shown) is below 8 µg/mL in terms of MIC.
Data returned: Not met

Data request: Please determine if CC(C)CC(N)C(=O)N[S+]([O-])c1cccc(OC(F)(F)F)c1 (stereo not shown) is below 8 µg/mL in terms of MIC.
Data returned: Not met

Data request: Please determine if CC(C)CC(N)C(=O)N[S+]([O-])c1ccccc1Cl (stereo not shown) is below 8 µg/mL in terms of MIC.
Data returned: Not met

Reference source for all entries: patent US11802110B2
